- experimentalSystem: UniProt P22303
- experimentSummary: biochemical
- protocolConditions: read-out: IC 50 for acetylcholine esterase inhibition
readoutLabel: pIC50
Friendly reminder that pIC50 comes from taking -log10 of the concentration in mol/L.

Input line: Quick one: pIC50 of CNC(=O)Oc1cccc2c1CC[C@H]1[C@@H]2CCN1CCC1CCCCC1 (single isomer, unassigned) ?
Output line: 7.74

Input line: Same thing, different compound: CN(C)C(=O)Oc1cccc2c1CC[C@@H]1[C@H]2CCN1CCCCCN1C(=O)[C@H]2CCCC[C@H]2C1=O (relative stereo)
Output line: 8.11

Input line: Same thing, different compound: CN(C)C(=O)Oc1cccc2c1CC[C@H]1[C@@H]2CCN1CCCC(=O)c1ccccc1 (racemic)
Output line: 8.08

Input line: Same thing, different compound: CCCCNC(=O)Oc1cccc2c1CC[C@H]1[C@@H]2CCN1CCC1CCCCC1 (racemic)
Output line: 6.10

Input line: Same thing, different compound: CN(C)C(=O)Oc1cccc2c1CC[C@H]1[C@@H]2CCN1CCCC(=O)c1ccc(F)cc1 (racemic)
Output line: 8.17

Input line: Same thing, different compound: CN(C)C(=O)Oc1cccc2c1CC[C@H]1[C@@H]2CCN1CCCCN1C(=O)CC(C)(C)CC1=O (racemic)
Output line: 7.89

---

Let's look at some molecules and their measured pIC50.
- experimentalSystem: acetylcholine esterase (Homo sapiens)
- experimentSummary: biochemical
- protocolConditions: IC 50 for acetylcholine esterase inhibition
- Source text: The determination of the acetylcholine esterase inhibition was effected according to the method of Ellmann et al., Biochem. Pharmacol. 7 (1961) 88, and/or according to the method of Johnson et al., Analytical Biochemistry 64 (1975), 229.
Friendly reminder that pIC50 comes from taking -log10 of the concentration in mol/L.

Worked cases, pIC50 given:
[[record]]
molecule = "CN(C)C(=O)Oc1cccc2c1CC[C@H]1[C@@H]2CCN1CCCCCCN1C(=O)c2ccccc2C1=O.Cl (racemic) [E, hydrochloride]"
recordedmeasurement = 9.40

[[record]]
molecule = "CN(C)C(=O)Oc1cccc2c1CC[C@H]1[C@@H]2CCN1CCN1CCOCC1.Cl.Cl (racemic) [F, dihydrochloride]"
recordedmeasurement = 6.97

[[record]]
molecule = "CN(C)C(=O)Oc1cccc2c1CC[C@H]1[C@@H]2CCN1CCCCN1C(=O)c2ccccc2C1=O.Cl (racemic) [D, hydrochloride]"
recordedmeasurement = 8.85

[[record]]
molecule = "CN(C)C(=O)Oc1cccc2c1CC[C@H]1[C@@H]2CCN1CCC1CCCCC1.Cl (racemic) [C, hydrochloride]"
recordedmeasurement = 7.80


Input line: Quick one: pIC50 of CN(C)C(=O)Oc1cccc2c1CC[C@H]1[C@@H]2CCN1CCC1CCCCC1.Cl (single isomer, unassigned) [A, hydrochloride] ?
Output line: 7.66

---

Let's look at some compounds and their measured pIC50.
- experimentalSystem: acetylcholine esterase (Homo sapiens, UniProt P22303)
- Sequence (P22303 32-614): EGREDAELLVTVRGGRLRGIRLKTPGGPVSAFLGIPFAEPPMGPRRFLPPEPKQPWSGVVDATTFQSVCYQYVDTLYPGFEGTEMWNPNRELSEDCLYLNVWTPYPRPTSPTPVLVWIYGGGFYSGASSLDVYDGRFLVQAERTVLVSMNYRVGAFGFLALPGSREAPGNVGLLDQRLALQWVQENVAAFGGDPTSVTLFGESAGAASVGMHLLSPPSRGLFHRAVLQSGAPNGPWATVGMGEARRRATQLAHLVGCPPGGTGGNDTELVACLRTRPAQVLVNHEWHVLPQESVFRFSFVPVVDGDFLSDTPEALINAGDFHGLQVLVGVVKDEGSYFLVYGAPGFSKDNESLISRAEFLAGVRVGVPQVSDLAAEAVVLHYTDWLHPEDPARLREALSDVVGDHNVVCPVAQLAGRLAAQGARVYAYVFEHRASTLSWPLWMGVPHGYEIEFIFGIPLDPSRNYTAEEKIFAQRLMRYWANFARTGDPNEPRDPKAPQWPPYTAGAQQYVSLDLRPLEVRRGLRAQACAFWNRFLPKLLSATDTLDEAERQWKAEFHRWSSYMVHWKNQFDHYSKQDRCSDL
- experimentSummary: biochemical
- protocolConditions: read-out: IC 50 for acetylcholine esterase inhibition
Friendly reminder that pIC50 comes from taking -log10 of the concentration in mol/L.

Worked cases, pIC50 given:
[[record]]
compound = "CN(C)C(=O)Oc1cccc2c1CC[C@H]1[C@@H]2CCN1CCCC1CCCCC1 (racemic)"
recordedmeasurement = 7.72

[[record]]
compound = "CN(C)C(=O)Oc1cccc2c1CC[C@H]1[C@@H]2CCN1CC1CCCCC1 (racemic)"
recordedmeasurement = 7.44

[[record]]
compound = "CCCN1C[C@@H](C)[C@@H]2c3cccc(OC(=O)N(C)C)c3CC[C@@H]21 (relative stereo)"
recordedmeasurement = 6.31

[[record]]
compound = "CN(C)C(=O)Oc1cccc2c1CC[C@H]1[C@@H]2CCN1CCCc1ccccc1 (racemic)"
recordedmeasurement = 7.44

[[record]]
compound = "CN(C)C(=O)Oc1cccc2c1CC[C@H]1[C@@H]2CCN1CCCCCN1C(=O)CC(C)(C)CC1=O (racemic)"
recordedmeasurement = 7.96


Input line: Quick one: pIC50 of CN(C)C(=O)Oc1cccc2c1CC[C@@H]1[C@H]2CCN1CCCCNC(=O)c1ccc(S(C)(=O)=O)cc1 (relative stereo) ?
Output line: 8.17

Input line: Same thing, different compound: CN(C)C(=O)Oc1cccc2c1CC[C@H]1[C@@H]2CCN1CCCCCCN1C(=O)CC(C)(C)CC1=O (racemic)
Output line: 8.10
